target: delta opioid receptor (NG108-15 cell membranes) (Mus musculus); construct: NG108-15 cell membranes were purchased from Applied Cell Sciences (Rockville, Md.); host or cells: NG108-15 cells (membranes purchased); assay: Delta Opioid Receptor Functional Assay: [35S]GTPγS Binding in NG108-15 Cell Membranes, Version 2; assay type: biochemical; conditions: NG108-15 cell membranes, [35S]GTPγS, version 2; read-out: DOR GTP-binding Assay_v2_ EC50
Sequence (P32300 whole entry): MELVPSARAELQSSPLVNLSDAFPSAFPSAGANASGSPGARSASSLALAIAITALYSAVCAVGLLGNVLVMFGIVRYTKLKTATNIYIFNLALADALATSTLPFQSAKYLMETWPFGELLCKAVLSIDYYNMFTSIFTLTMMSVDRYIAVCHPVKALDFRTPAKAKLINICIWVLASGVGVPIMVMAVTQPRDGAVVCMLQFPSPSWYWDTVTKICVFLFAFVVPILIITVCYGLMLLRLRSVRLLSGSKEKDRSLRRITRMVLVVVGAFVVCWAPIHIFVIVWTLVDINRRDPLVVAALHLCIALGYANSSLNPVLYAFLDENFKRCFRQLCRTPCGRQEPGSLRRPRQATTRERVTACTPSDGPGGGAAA
Under this convention, Criterion met denotes EC50 strictly below 10 nM and Criterion not met denotes EC50 at or above 10 nM.

// known answers, use as guide
COC(=O)c1ccc(CN(C(=O)[C@@H](N)Cc2c(C)cc(O)cc2C)[C@@H](C)c2nc(-c3ccccc3)c[nH]2)o1: Criterion met
COc1ccc(CN(C(=O)[C@@H](N)Cc2c(C)cc(C(N)=O)cc2C)[C@@H](C)c2nc(-c3ccc(Cl)cc3)c(C)[nH]2)cc1C(=O)O: Criterion not met
COC(=O)c1ccc(CN(C(=O)[C@@H](N)Cc2c(C)cc(C(N)=O)cc2C)[C@@H](C)c2nc(-c3ccccc3)c[nH]2)nc1: Criterion not met

Input line: Field: below-cutoff. Rule: recorded EC50 strictly less than 10 nM. Subject: COC(=O)c1ccc(CN(C(=O)[C@@H](N)Cc2c(C)cc(C(N)=O)cc2C)[C@@H](C)c2nc(-c3ccccc3)c[nH]2)cn1
Output line: Criterion not met

Input line: Is EC50 of C[C@@H](c1nc(-c2ccccc2)c[nH]1)N(Cc1cccc(-c2nnn[nH]2)c1)C(=O)[C@@H](N)Cc1ccc(C(N)=O)cc1 strictly below 10 nM?
Output line: Criterion met
